Measured Emax accompanies every entry in the list below.
biological target: human V1aR (Homo sapiens, UniProt P37288); construct: expressed in transfected cells; test: Agonist activity at vasopressin V1a receptors, cell-based FLIPR calcium assay; settings: read-out: Efficacy Avg. (%)
Sequence (P37288 whole entry): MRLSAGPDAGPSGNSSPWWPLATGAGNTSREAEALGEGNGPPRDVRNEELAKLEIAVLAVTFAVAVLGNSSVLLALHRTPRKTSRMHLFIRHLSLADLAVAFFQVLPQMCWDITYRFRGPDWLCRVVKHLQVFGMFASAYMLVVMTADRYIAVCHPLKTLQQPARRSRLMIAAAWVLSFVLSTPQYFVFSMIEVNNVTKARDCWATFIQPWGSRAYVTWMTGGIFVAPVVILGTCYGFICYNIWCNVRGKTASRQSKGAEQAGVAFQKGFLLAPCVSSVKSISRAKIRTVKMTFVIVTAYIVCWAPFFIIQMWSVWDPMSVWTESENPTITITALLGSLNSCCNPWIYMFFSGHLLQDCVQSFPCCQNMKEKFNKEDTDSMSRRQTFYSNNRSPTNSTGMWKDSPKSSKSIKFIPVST
# output: number + unit

Here are 5 compounds together with their reported answers.
Compound	Target or system	Emax
CC[C@H](C)[C@@H]1NC(=O)[C@H](Cc2ccccc2)NC(=O)[C@@H](N)CSSC[C@@H](C(=O)N2CCC[C@H]2C(=O)N[C@@H](CCCNCCCCCNC(=O)CC[C@H](NC(=O)[C@H](CCCNC(=N)N)NC(=O)[C@@H]2CCCN2C(=O)[C@H](CCN)NC(=O)[C@H](CC(N)=O)NC(=O)[C@H](CCC(N)=O)NC(=O)[C@H](Cc2ccccc2)NC(=O)[C@@H](Cc2ccc(OC)cc2)NC(=O)Cc2ccccc2)C(N)=O)C(=O)NCC(N)=O)NC(=O)[C@H](CC(N)=O)NC(=O)[C@H](CCC(N)=O)NC1=O [Compound 16]	human V1aR (Homo sapiens, UniProt P37288)	46%
CC[C@H](C)[C@@H]1NC(=O)[C@H](Cc2ccccc2)NC(=O)[C@@H](N)CSSC[C@@H](C(=O)N2CCC[C@H]2C(=O)N[C@@H](CCCNCCCCCCNC(=O)CC[C@H](NC(=O)[C@H](CCCNC(=N)N)NC(=O)[C@@H]2CCCN2C(=O)[C@H](C)NC(=O)[C@H](CC(N)=O)NC(=O)[C@H](CCC(N)=O)NC(=O)[C@H](Cc2ccccc2)NC(=O)[C@@H](Cc2ccc(OC)cc2)NC(=O)C2CCCCC2)C(N)=O)C(=O)NCC(N)=O)NC(=O)[C@H](CC(N)=O)NC(=O)[C@H](CCC(N)=O)NC1=O [Compound 19]	human V1aR (Homo sapiens, UniProt P37288)	50%
CC[C@H](C)[C@@H]1NC(=O)[C@H](Cc2ccccc2)NC(=O)[C@@H](N)CSSC[C@@H](C(=O)N2CCC[C@H]2C(=O)N[C@@H](CCCNCCCCCC(=O)NCCCC[C@H](NC(=O)[C@H](CCCNC(=N)N)NC(=O)[C@@H]2CCCN2C(=O)[C@H](C)NC(=O)[C@H](CC(N)=O)NC(=O)[C@H](CCC(N)=O)NC(=O)[C@H](Cc2ccccc2)NC(=O)[C@@H](Cc2ccc(OC)cc2)NC(=O)Cc2ccccc2)C(N)=O)C(=O)NCC(N)=O)NC(=O)[C@H](CC(N)=O)NC(=O)[C@H](CCC(N)=O)NC1=O [Compound 8]	human V1aR (Homo sapiens, UniProt P37288)	50%
CC[C@H](C)[C@@H]1NC(=O)[C@H](Cc2ccccc2)NC(=O)[C@@H](O)CSSC[C@@H](C(=O)N2CCC[C@H]2C(=O)N[C@@H](CCNC(=O)[C@@H](N)CCCCNC(=O)CC[C@H](NC(=O)[C@H](CCCNC(=N)N)NC(=O)[C@@H]2CCCN2C(=O)[C@H](C)NC(=O)[C@H](CC(N)=O)NC(=O)[C@H](CCC(N)=O)NC(=O)[C@H](Cc2ccccc2)NC(=O)[C@@H](Cc2ccc(OC)cc2)NC(=O)Cc2ccccc2)C(N)=O)C(=O)NCC(N)=O)NC(=O)[C@H](CC(N)=O)NC(=O)[C@H](CCC(N)=O)NC1=O [Compound 30]	human V1aR (Homo sapiens, UniProt P37288)	50%
CC[C@H](C)[C@@H]1NC(=O)[C@H](Cc2ccccc2)NC(=O)[C@@H](O)CSSC[C@@H](C(=O)N2CCC[C@H]2C(=O)N[C@@H](CCNC(=O)[C@@H](N)CCCCNC(=O)CC[C@H](NC(=O)[C@H](CCCNC(=N)N)NC(=O)[C@@H]2CCCN2C(=O)[C@H](CCCNC(N)=O)NC(=O)[C@H](CC(N)=O)NC(=O)[C@H](CCC(N)=O)NC(=O)[C@H](Cc2ccccc2)NC(=O)[C@@H](Cc2ccc(OC)cc2)NC(=O)Cc2ccccc2)C(N)=O)C(=O)NCC(N)=O)NC(=O)[C@H](CC(N)=O)NC(=O)[C@H](CCCC(N)=O)NC1=O [Compound 48]	human V1aR (Homo sapiens, UniProt P37288)	67%

Determine its reported Emax: CC[C@H](C)[C@@H]1NC(=O)[C@H](Cc2ccccc2)NC(=O)[C@@H](N)CSSC[C@@H](C(=O)N2CCC[C@H]2C(=O)N[C@@H](CCCNCCCCCNC(=O)CC[C@H](NC(=O)[C@H](CCCNC(=N)N)NC(=O)[C@@H]2CCCN2C(=O)[C@H](CCC(N)=O)NC(=O)[C@H](CC(N)=O)NC(=O)[C@H](CCC(N)=O)NC(=O)[C@H](Cc2ccccc2)NC(=O)[C@@H](Cc2ccc(OC)cc2)NC(=O)Cc2ccccc2)C(N)=O)C(=O)NCC(N)=O)NC(=O)[C@H](CC(N)=O)NC(=O)[C@H](CCC(N)=O)NC1=O [Compound 14]
37%

Determine its reported Emax: CC[C@H](C)[C@@H]1NC(=O)[C@H](Cc2ccccc2)NC(=O)[C@@H](N)CSSC[C@@H](C(=O)N2CCC[C@H]2C(=O)N[C@@H](CCCNCCCCCNC(=O)CC[C@H](NC(=O)[C@H](CCCNC(=N)N)NC(=O)[C@@H]2CCCN2C(=O)[C@H](CCCCN)NC(=O)[C@H](CC(N)=O)NC(=O)[C@H](CCC(N)=O)NC(=O)[C@H](Cc2ccccc2)NC(=O)[C@@H](Cc2ccc(OC)cc2)NC(=O)Cc2ccccc2)C(N)=O)C(=O)NCC(N)=O)NC(=O)[C@H](CC(N)=O)NC(=O)[C@H](CCC(N)=O)NC1=O [Compound 12]
39%

Determine its reported Emax: CC[C@H](C)[C@@H]1NC(=O)[C@H](Cc2ccccc2)NC(=O)[C@@H](N)CSSC[C@@H](C(=O)N2CCC[C@H]2C(=O)N[C@@H](CCCNCCCCCCNC(=O)CC[C@H](NC(=O)[C@H](CCCNC(=N)N)NC(=O)[C@@H]2CCCN2C(=O)[C@H](C)NC(=O)[C@H](CC(N)=O)NC(=O)[C@H](CCC(N)=O)NC(=O)[C@H](Cc2ccccc2)NC(=O)[C@@H](Cc2ccc(OC)cc2)NC(=O)Cc2ccccc2)C(N)=O)C(=O)NCC(N)=O)NC(=O)[C@H](CC(N)=O)NC(=O)[C@H](CCC(N)=O)NC1=O [Compound 4]
24%

* * *

Measured Emax accompanies every entry in the list below.
biological target: human V1aR (Homo sapiens); construct: expressed in transfected cells; test: Agonist activity at vasopressin V1a receptors, cell-based FLIPR calcium assay; details: read-out: Efficacy Avg. (%)
A number alone suffices; assume %.

Determine its reported Emax: CC[C@H](C)[C@@H]1NC(=O)[C@H](Cc2ccccc2)NC(=O)[C@@H](N)CSSC[C@@H](C(=O)N2CCC[C@H]2C(=O)N[C@@H](CCCNCCCC(=O)NCCCC[C@H](NC(=O)[C@H](CCCNC(=N)N)NC(=O)[C@@H]2CCCN2C(=O)[C@H](CCCNC(=N)N)NC(=O)[C@H](CC(N)=O)NC(=O)[C@H](CCC(N)=O)NC(=O)[C@H](Cc2ccccc2)NC(=O)[C@@H](Cc2ccc(OC)cc2)NC(=O)Cc2ccccc2)C(N)=O)C(=O)NCC(N)=O)NC(=O)[C@H](CC(N)=O)NC(=O)[C@H](CCC(N)=O)NC1=O [Compound 7]
24

Determine its reported Emax: CC[C@H](C)[C@@H]1NC(=O)[C@H](Cc2ccccc2)NC(=O)[C@@H](N)CSSC[C@@H](C(=O)N2CCC[C@H]2C(=O)N[C@@H](CCCNCCCCCC(=O)NCCCC[C@H](NC(=O)[C@H](CCCNC(=N)N)NC(=O)[C@@H]2CCCN2C(=O)[C@H](CC(C)C)NC(=O)[C@H](CC(N)=O)NC(=O)[C@H](CCC(N)=O)NC(=O)[C@H](Cc2ccccc2)NC(=O)[C@@H](Cc2ccc(OC)cc2)NC(=O)Cc2ccccc2)C(N)=O)C(=O)NCC(N)=O)NC(=O)[C@H](CC(N)=O)NC(=O)[C@H](CCC(N)=O)NC1=O [Compound 9]
34

Determine its reported Emax: CC[C@H](C)[C@@H]1NC(=O)[C@H](Cc2ccccc2)NC(=O)[C@@H](N)CSSC[C@@H](C(=O)N2CCC[C@H]2C(=O)N[C@@H](CCCNCCCCCNC(=O)CC[C@H](NC(=O)[C@H](CCCNC(=N)N)NC(=O)[C@@H]2CCCN2C(=O)[C@H](CCCNC(N)=O)NC(=O)[C@H](CC(N)=O)NC(=O)[C@H](CCC(N)=O)NC(=O)[C@H](Cc2ccc(Cl)cc2)NC(=O)[C@@H](Cc2ccc(OC)cc2)NC(=O)Cc2ccccc2)C(N)=O)C(=O)NCC(N)=O)NC(=O)[C@H](CC(N)=O)NC(=O)[C@H](CCC(N)=O)NC1=O [Compound 45]
72

Determine its reported Emax: CC[C@H](C)[C@@H]1NC(=O)[C@H](Cc2ccccc2)NC(=O)[C@@H](N)CSSC[C@@H](C(=O)N2CCC[C@H]2C(=O)N[C@@H](CCCNCCCCNC(=O)CC[C@H](NC(=O)[C@H](CCCNC(=N)N)NC(=O)[C@@H]2CCCN2C(=O)[C@H](CCCNC(=N)N)NC(=O)[C@H](CC(N)=O)NC(=O)[C@H](CCC(N)=O)NC(=O)[C@H](Cc2ccccc2)NC(=O)[C@@H](Cc2ccc(OC)cc2)NC(=O)Cc2ccccc2)C(N)=O)C(=O)NCC(N)=O)NC(=O)[C@H](CC(N)=O)NC(=O)[C@H](CCC(N)=O)NC1=O [Compound 10]
26

Determine its reported Emax: CCCCCCC(=O)N[C@H](Cc1ccc(OC)cc1)C(=O)N[C@@H](Cc1ccccc1)C(=O)N[C@@H](CCC(N)=O)C(=O)N[C@@H](CC(N)=O)C(=O)N[C@@H](C)C(=O)N1CCC[C@H]1C(=O)N[C@@H](CCCNC(=N)N)C(=O)N[C@@H](CCC(=O)NCCCCCCNCCC[C@H](NC(=O)[C@@H]1CCCN1C(=O)[C@@H]1CSSC[C@H](N)C(=O)N[C@@H](Cc2ccccc2)C(=O)N[C@@H]([C@@H](C)CC)C(=O)N[C@@H](CCC(N)=O)C(=O)N[C@@H](CC(N)=O)C(=O)N1)C(=O)NCC(N)=O)C(N)=O [Compound 17]
62

Determine its reported Emax: CC[C@H](C)[C@@H]1NC(=O)[C@H](Cc2ccccc2)NC(=O)[C@@H](N)CSSC[C@@H](C(=O)N2CCC[C@H]2C(=O)N[C@@H](CCCNCCCCCCNC(=O)CCCCNC(=O)CC[C@H](NC(=O)[C@H](CCCNC(=N)N)NC(=O)[C@@H]2CCCN2C(=O)[C@H](C)NC(=O)[C@H](CC(N)=O)NC(=O)[C@H](CCC(N)=O)NC(=O)[C@H](Cc2ccccc2)NC(=O)[C@@H](Cc2ccc(OC)cc2)NC(=O)Cc2ccccc2)C(N)=O)C(=O)NCC(N)=O)NC(=O)[C@H](CC(N)=O)NC(=O)[C@H](CCC(N)=O)NC1=O [Compound 5]
28

Determine its reported Emax: CC[C@H](C)[C@@H]1NC(=O)[C@H](Cc2ccccc2)NC(=O)[C@@H](N)CSSC[C@@H](C(=O)N2CCC[C@H]2C(=O)N[C@@H](CCCNCCCCCNC(=O)CC[C@H](NC(=O)[C@H](CCCNC(=N)N)NC(=O)[C@@H]2CCCN2C(=O)[C@H](CCCNC(N)=O)NC(=O)[C@H](CC(N)=O)NC(=O)[C@H](CCC(N)=O)NC(=O)[C@H](CC(C)(C)C)NC(=O)[C@@H](Cc2ccc(OC)cc2)NC(=O)Cc2ccccc2)C(N)=O)C(=O)NCC(N)=O)NC(=O)[C@H](CC(N)=O)NC(=O)[C@H](CCC(N)=O)NC1=O [Compound 46]
62

Determine its reported Emax: CC[C@H](C)[C@@H]1NC(=O)[C@H](Cc2ccccc2)NC(=O)[C@@H](N)CSSC[C@@H](C(=O)N2CCC[C@H]2C(=O)N[C@@H](CCCNCCCCCNC(=O)CC[C@H](NC(=O)[C@H](CCCNC(=N)N)NC(=O)[C@@H]2CCCN2C(=O)[C@H](CO)NC(=O)[C@H](CC(N)=O)NC(=O)[C@H](CCC(N)=O)NC(=O)[C@H](Cc2ccccc2)NC(=O)[C@@H](Cc2ccc(OC)cc2)NC(=O)Cc2ccccc2)C(N)=O)C(=O)NCC(N)=O)NC(=O)[C@H](CC(N)=O)NC(=O)[C@H](CCC(N)=O)NC1=O [Compound 11]
51

Determine its reported Emax: CC[C@H](C)[C@@H]1NC(=O)[C@H](Cc2ccccc2)NC(=O)[C@@H](N)CSSC[C@@H](C(=O)N2CCC[C@H]2C(=O)N[C@@H](CCCNCCCCCNC(=O)CC[C@H](NC(=O)[C@H](CCCNC(=N)N)NC(=O)[C@@H]2CCCN2C(=O)[C@H](CCCNC(N)=O)NC(=O)[C@H](CC(N)=O)NC(=O)[C@H](CCC(N)=O)NC(=O)[C@H](Cc2ccccc2)NC(=O)[C@@H](Cc2ccc(OC)cc2)NC(=O)Cc2ccccc2)C(N)=O)C(=O)NCC(N)=O)NC(=O)[C@H](CC(N)=O)NC(=O)[C@H](CCC(N)=O)NC1=O [Compound 15]
44
